- Target under test: A disintegrin and metalloproteinase with thrombospondin motifs 4 (Homo sapiens)
- Sequence (O75173 whole entry): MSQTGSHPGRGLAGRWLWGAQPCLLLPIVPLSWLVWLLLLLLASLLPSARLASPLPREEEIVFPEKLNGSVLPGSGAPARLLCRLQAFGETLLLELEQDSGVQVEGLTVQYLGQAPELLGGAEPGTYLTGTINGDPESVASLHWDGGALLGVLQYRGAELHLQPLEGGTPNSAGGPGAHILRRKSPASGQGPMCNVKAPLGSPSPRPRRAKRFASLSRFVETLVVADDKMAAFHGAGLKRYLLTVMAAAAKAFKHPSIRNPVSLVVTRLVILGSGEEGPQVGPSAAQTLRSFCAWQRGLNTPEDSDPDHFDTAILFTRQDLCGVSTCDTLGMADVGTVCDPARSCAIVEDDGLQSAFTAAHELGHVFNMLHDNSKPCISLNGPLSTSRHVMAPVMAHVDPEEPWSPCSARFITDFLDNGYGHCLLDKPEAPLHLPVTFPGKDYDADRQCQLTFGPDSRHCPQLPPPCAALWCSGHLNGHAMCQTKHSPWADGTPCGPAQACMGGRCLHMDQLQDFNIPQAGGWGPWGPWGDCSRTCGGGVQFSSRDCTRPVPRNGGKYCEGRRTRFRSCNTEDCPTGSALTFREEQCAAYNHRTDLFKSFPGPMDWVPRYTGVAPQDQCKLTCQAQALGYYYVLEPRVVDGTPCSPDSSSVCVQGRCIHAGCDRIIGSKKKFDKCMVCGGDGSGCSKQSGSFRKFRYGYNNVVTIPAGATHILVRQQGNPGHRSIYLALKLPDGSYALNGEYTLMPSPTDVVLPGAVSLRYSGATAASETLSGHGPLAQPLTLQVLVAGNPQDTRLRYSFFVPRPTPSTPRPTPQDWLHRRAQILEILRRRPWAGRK
Property name: IC50 (µM)

(P) [K+].[S-]c1nnc(Cc2nc(-c3cnccn3)no2)n1CCCc1ccccc1
(Q) [K+].[S-]c1nnc(COc2ccc(Cl)cc2)n1Cc1ccccc1-c1ccccc1
Query: Given the two records P and Q , choose the one whose IC50 value is lower. Provide the label of your selected option as the answer.
Reply: P
(P: 8 µM, Q: 12 µM)
